# target-desc: T1, human MSLN-His-Avi (human, UniProt Q13421 296-598, single biotin (BirA) in the biotinylated form)
# T1 construct: Monomeric, made in HEK293-6E; Used both immobilised and in solution; also called hMSLN-His-Avi; biotinylated hMSLN-His-Avi
# T1 sequence (Q13421 other isoform, or with tags, fused parts or gaps): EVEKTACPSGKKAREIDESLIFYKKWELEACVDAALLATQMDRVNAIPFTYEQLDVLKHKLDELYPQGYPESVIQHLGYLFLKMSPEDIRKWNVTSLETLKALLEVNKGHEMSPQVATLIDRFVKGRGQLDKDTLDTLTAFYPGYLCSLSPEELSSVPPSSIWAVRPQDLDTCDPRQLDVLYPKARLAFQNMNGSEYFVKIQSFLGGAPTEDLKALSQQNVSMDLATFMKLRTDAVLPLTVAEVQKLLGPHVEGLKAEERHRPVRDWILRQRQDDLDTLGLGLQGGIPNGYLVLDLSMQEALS
# test: ratio of the two SPR KD
measured-quantity: Ratio of KD in solution/immobilised for human MSLN-His-Avi
Enter the number alone.

Task item: Give its Ratio of KD in solution/immobilised for human MSLN-His-Avi value. Item: FS28-256-274 (in CD137 mAb^2 format) (bispecific antibody, V domains shown) VH: EVQLLESGGGLVQPGGSLRLSCAASGFTFTHTYMSWVRQAPGKGLEWVSTISPTYSTTNYADSVKGRFTISRDNNKNTLYLQMNSLRAEDTAVYYCARYNAYHAALDYWGQGTLVTVSS VL: EIVLTQSPGTLSLSPGERATLSCRASQSVSSSYLAWYQQKPGQAPRLLIYGASSRATGIPDRFSGSGSGTDFTLTISRLEPEDFAVYYCQQTVPYPYTFGQGTKVEIK
Reply: 2.8

Task item: What value of measured Ratio of KD in solution/immobilised for human MSLN-His-Avi is listed for FS28-256-027 (in CD137 mAb^2 format, Table 6) (bispecific antibody, V domains shown) VH: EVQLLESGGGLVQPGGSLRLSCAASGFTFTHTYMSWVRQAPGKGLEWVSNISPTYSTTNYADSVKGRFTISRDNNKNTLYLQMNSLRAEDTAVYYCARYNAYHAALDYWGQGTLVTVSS VL: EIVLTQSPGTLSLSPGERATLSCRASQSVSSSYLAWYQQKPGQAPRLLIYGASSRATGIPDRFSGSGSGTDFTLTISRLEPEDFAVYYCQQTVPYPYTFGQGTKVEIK ?
Reply: 0.68

Entry source: patent US20220267421A1
